# PROCEDURE_TEXT: RP, Thermo Scientific Acclaim RSLC 120 C18, 100 × 2.1 mm, 2.2 µm, 30 °C, 0.2 mL/min, estimated dead time 1.1 min; A: 90% water + 10% methanol + 0.01% formic acid + 5 mM ammonium formate, pH 3.61; B: methanol + 0.01% formic acid + 5 mM ammonium formate, pH 3.61; gradient (min/%B) 0/1 1/1 2/39 13/99.9 15/99.9 15.1/1 20.1/1
# MEASUREMENT_CONDITIONS: stereoisomer not certain
PROPERTY_LABEL: LC retention time (min)
Give the quantity in min, number only.

Known results for molecules:
CCc1cccc(C)c1N(C(=O)CS(=O)(=O)O)C(C)COC (stereo unspecified) : 7.34
COc1ccc(CCNCCCC(C#N)(c2ccc(OC)c(OC)c2)C(C)C)cc1OC (stereo unspecified) : 6.96

q: Sample "COC(=O)c1ccccc1CS(=O)(=O)NC(=O)Nc1nc(OC)cc(OC)n1" — what was its LC retention time?
a: 8.77

q: Looking for the measured LC retention time of "CCCCOCN(C(=O)CCl)c1c(CC)cccc1CC" , can you help?
a: 12.3

q: Look at this molecule and give its reported LC retention time. Cc1ccc(C(=O)C(C)N2CCCC2)cc1 (stereo unspecified)
a: 4.76

q: For the molecule CCC(C)OC(=O)N1CCCCC1CCO (stereo unspecified) , what LC retention time is on record?
a: 8.83

q: What does the record list as LC retention time for "COC(=O)c1cc(Oc2ccc(Cl)cc2Cl)ccc1[N+](=O)[O-]" ?
a: 11.5

q: Consider the molecule shown here: "COc1ccccc1CC(=O)c1cn(CCC2CCCCC2)c2ccccc12" What is its recorded LC retention time?
a: 13

q: Need LC retention time, item CCN(CC)CCNC(=O)c1ccc(N)cc1 [Procainamide]
a: 2.83

q: Name the reported LC retention time value associated with the molecule CC1(c2ccc(Oc3ccccc3)cc2)OC(=O)N(Nc2ccccc2)C1=O (stereo unspecified)
a: 11

q: What does the data say about its LC retention time? Entry: COC(=O)C(C)N(C(=O)Cc1ccccc1)c1c(C)cccc1C (stereo unspecified)
a: 10.9

====

Each entry below lists one item and its recorded LC retention time value.
# PROCEDURE_TEXT: RP, Thermo Scientific Acclaim RSLC 120 C18, 100 × 2.1 mm, 2.2 µm, 30 °C, 0.2 mL/min, estimated dead time 1.1 min; A: water + 0.1% formic acid, pH 2.6; B: methanol + 0.1% formic acid, pH 2.6; gradient (min/%B) 0/10 4/50 17/95 25/95 25.1/10 30/10
# MEASUREMENT_CONDITIONS: stereoisomer not certain
Provide the reading as a plain figure in min.

See these solved cases before continuing.
CCOP(=O)(OCC)OCC [Phosphate-triethyl] : 6.94
NCC(O)c1ccccc1 (centres undefined) : 2.34
CC(C)NCC(O)c1ccc(N)c(C#N)c1 (centres undefined) : 2.51
CN1CCC23c4c5ccc(O)c4OC2C(O)C=CC3C1C5 (centres undefined) : 2.11
CC12CCC(=O)C=C1CCC1C2CCC2(C)C(O)CCC12 (centres undefined) : 12.2
CC(N)Cc1ccc2c(c1)OCO2 (centres undefined) : 3.96
CNC(=O)ON=C(C)C(C)SC (centres undefined) : 6.82
CC(=O)Nc1ccc(S(=O)(=O)Nc2nc(C)cc(C)n2)cc1 : 5.06

q: I would be grateful if you could share the reported LC retention time for COCC(NC(C)=O)C(=O)NCc1ccccc1 (centres undefined) [Lacosamide] .
a: 5.79

====

# PROCEDURE_TEXT: RP, Thermo Scientific Acclaim RSLC 120 C18, 100 × 2.1 mm, 2.2 µm, 30 °C, 0.2 mL/min, estimated dead time 1.1 min; A: 90% water + 10% methanol + 0.01% formic acid + 5 mM ammonium formate, pH 3.61; B: methanol + 0.01% formic acid + 5 mM ammonium formate, pH 3.61; gradient (min/%B) 0/1 1/1 2/39 13/99.9 15/99.9 15.1/1 20.1/1
# MEASUREMENT_CONDITIONS: stereoisomer not certain
Recorded LC retention time for the following compounds
Give the value, in units of min, as a plain number.

Please review the entries below; each comes with its answer.
CCOCN(C(=O)CCl)c1c(C)cccc1CC : 10.2
CCCSc1cc(OC)c(CCN)cc1OC : 6.98
CCCCCCCCCCN(C)C : 8.59

q: Item CCOC(=O)C1=C(COCCN)NC(C)=C(C(=O)OC)C1c1ccccc1Cl (centres undefined) has what recorded LC retention time?
a: 8.36

====

# PROCEDURE_TEXT: RP, Thermo Scientific Acclaim RSLC 120 C18, 100 × 2.1 mm, 2.2 µm, 30 °C, 0.2 mL/min, estimated dead time 1.1 min; A: 90% water + 10% methanol + 0.01% formic acid + 5 mM ammonium formate, pH 3.61; B: methanol + 0.01% formic acid + 5 mM ammonium formate, pH 3.61; gradient (min/%B) 0/1 1/1 2/39 13/99.9 15/99.9 15.1/1 20.1/1
# MEASUREMENT_CONDITIONS: stereoisomer not certain
Each record here notes measured LC retention time.
Quick note: give the figure in min, leave out the unit.

COc1cc(CCN)c(OC)cc1Cl : 5.28
CC(C)CC(CN)CC(=O)O (stereo not given) : 3.88
CCC(C)(C)C(=O)OC1CC(C)C=C2C=CC(C)C(CCC3CC(O)CC(=O)O3)C21 (stereo not given) : 12.6
O=C1CN(N=Cc2ccc([N+](=O)[O-])o2)C(=O)N1 : 4.14

Consider the record given below.
q: I am curious: what LC retention time value has been reported for CCCCCCOC(=O)NC(=N)c1ccc(NCc2nc3cc(C(=O)N(CCC(=O)OCC)c4ccccn4)ccc3n2C)cc1 [Dabigatran etexilate] ?
a: 9.29

====

# PROCEDURE_TEXT: RP, Thermo Scientific Acclaim RSLC 120 C18, 100 × 2.1 mm, 2.2 µm, 30 °C, 0.2 mL/min, estimated dead time 1.1 min; A: 90% water + 10% methanol + 0.01% formic acid + 5 mM ammonium formate, pH 3.61; B: methanol + 0.01% formic acid + 5 mM ammonium formate, pH 3.61; gradient (min/%B) 0/1 1/1 2/39 13/99.9 15/99.9 15.1/1 20.1/1
# MEASUREMENT_CONDITIONS: stereoisomer not certain
LC retention time of 9 min or higher: 1 (yes). Under 9 min: 0 (no).

# count of solved cases: 5
CN1C(=O)CN=C(c2ccccc2F)c2cc(N)ccc21 : 0 (no)
CCCc1nn(C)c2c(=O)[nH]c(-c3cc(C(=O)CN4CCN(CC)CC4)ccc3OCC)nc12 : 0 (no)
CCOc1c(N)c2c(c(OCC)c1OCC)C(C1c3c(cc4c(c3OC)OCO4)CCN1C)OC2=O (stereo not drawn) : 1 (yes)
O=C1CC2(CCCC2)CC(=O)N1CCCCN1CCN(c2ncccn2)CC1 : 0 (no)
COC(=O)NC(C(=O)NC(Cc1ccccc1)C(O)CN(Cc1ccc(-c2ccccn2)cc1)NC(=O)C(NC(=O)OC)C(C)(C)C)C(C)(C)C (stereo not drawn) : 1 (yes)

q: Quick check, LC retention time >= 9 min? CC12CCC(=O)C=C1CCC1C2C(O)CC2(C=O)C(C(=O)CO)CCC12 (stereo not drawn)
a: 0 (no)

q: Tell me whether LC retention time is at least 9 min here: "CN=CNc1ccc(C)cc1C"
a: 0 (no)

q: Is LC retention time at least 9 min? Consider CC(CCc1ccc(O)cc1)NCC(O)c1ccc(O)cc1 (stereo not drawn)
a: 0 (no)

q: Test whether the molecule CCCN(CC)CC1COC2(CCC(C(C)(C)C)CC2)O1 (stereo not drawn) records LC retention time of 9 min or higher.
a: 1 (yes)

q: API: above_or_equal(metric=LC retention time, cutoff=9 min) for item CC=CC(=O)N(CC)C(CC)C(=O)N(C)C (stereo not drawn) [Crotethamide]
a: 0 (no)

q: Threshold query (LC retention time >= 9 min) on "Cc1nnc2n1-c1ccc(Cl)cc1C(c1ccccc1Cl)=NC2"
a: 0 (no)

====

# PROCEDURE_TEXT: RP, Thermo Scientific Acclaim RSLC 120 C18, 100 × 2.1 mm, 2.2 µm, 30 °C, 0.2 mL/min, estimated dead time 1.1 min; A: 90% water + 10% methanol + 0.01% formic acid + 5 mM ammonium formate, pH 3.61; B: methanol + 0.01% formic acid + 5 mM ammonium formate, pH 3.61; gradient (min/%B) 0/1 1/1 2/39 13/99.9 15/99.9 15.1/1 20.1/1
# MEASUREMENT_CONDITIONS: stereoisomer not certain
hey, just use yes (1) if measured LC retention time is less than 5 min, otherwise no (0)

Field: example entries. Status: answers known.
CCCCNC(=O)OCC#CI [3-Iodopropynyl butylcarbamate] : no (0)
CNC(C)Cc1ccccc1F (configuration not stated) : yes (1)
O=c1n(CCCN2CCN(c3cccc(Cl)c3)CC2)nc2ccccn12 : no (0)

q: Confirm or reject: LC retention time of "Cn1cc[nH]c1=S" lies strictly below 5 min
a: yes (1)

q: Please check: LC retention time for COc1ccc2c(c1OC)C(=O)OC2C1c2c(cc3c(c2OC)OCO3)CCN1C (configuration not stated) , strictly under 5 min or not?
a: no (0)

q: Hello, is LC retention time of the following compound strictly smaller than 5 min? CCCCSP(=O)(SCCCC)SCCCC [Tribufos (Merphos oxide. DEF)]
a: no (0)

q: Lab note: LC retention time threshold 5 min. Does this compound come in strictly under it? Cc1cccc(OCC(O)CNC(C)C)c1 (configuration not stated)
a: no (0)

q: is_below(LC retention time, 5 min) for CCN(CC)CCNC(=O)COc1ccc(OC)cc1 [Mefexamide] ?
a: yes (1)

q: Find out if reported LC retention time for "CC(=NC#N)N(C)Cc1ccc(Cl)nc1" is less than 5 min
a: no (0)

q: API: query returns whether the compound falls strictly under 5 min in LC retention time. Query: CC1(OC(=O)C=Cc2ccccc2)CC(O)C2(O)C=COC(OC3OC(CO)C(O)C(O)C3O)C12 (configuration not stated) [Harpagoside]
a: no (0)

Where do the numbers come from? From the RepoRT retention time repository (doi:10.1021/acs.analchem.2c02893).
